# Test system: SYO-1 tumor spheroids, viability % test/control
# MEASUREMENT_NOTES: Anticancer human tumor SYO-1 cell line growth inhibition; active = viability on the fitted dose curve at most 10% of control; inactive = the rest;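 also: spheroids exposed to agents for 7 days before viability read; 100% = DMSO vehicle control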
# CONDITION: second compound 94.9 pM; first compound 0.0316 µM; spheroids with HUVEC and MSC
Outcome codes: 1 (active), -1 (inactive)

COMPOUND	QUALITATIVE_LABEL
COc1cc(C)[nH]c(=O)c1CN1CCc2c(Cl)cc(C(OC)C3COC3)c(Cl)c2C1=O (stereo unspecified) + COc1cc2c(cc1O)CCNC21CSC2c3c(OC(C)=O)c(C)c4c(c3C(COC1=O)N1C(O)C3Cc5cc(C)c(OC)c(O)c5C(C21)N3C)OCO4	-1
CC(C)n1c(=O)n(C)c2cnc3cc(F)c(-c4ccc(OCCCN5CCCCC5)nc4)cc3c21 + COc1cc2c(cc1O)CCNC21CSC2c3c(OC(C)=O)c(C)c4c(c3C(COC1=O)N1C(O)C3Cc5cc(C)c(OC)c(O)c5C(C21)N3C)OCO4	-1
[2H]c1nc(C)nc([2H])c1-c1cc(NC[C@@H](C)c2cccc3c(C(=O)NC)ccnc23)ncn1 + COc1cc2c(cc1O)CCNC21CSC2c3c(OC(C)=O)c(C)c4c(c3C(COC1=O)N1C(O)C3Cc5cc(C)c(OC)c(O)c5C(C21)N3C)OCO4	-1
COc1ccc([C@@H](O)c2cc(-c3ncnc4cc(N5CCOCC5)ccc34)c(F)cc2Cl)nn1 + COc1cc2c(cc1O)CCNC21CSC2c3c(OC(C)=O)c(C)c4c(c3C(COC1=O)N1C(O)C3Cc5cc(C)c(OC)c(O)c5C(C21)N3C)OCO4	-1
Cc1cc(C)c(CNC(=O)c2cc(-c3ccc(CN4CCOCC4)cc3)cc3c2cnn3C2CCCC2)c(=O)[nH]1 + COc1cc2c(cc1O)CCNC21CSC2c3c(OC(C)=O)c(C)c4c(c3C(COC1=O)N1C(O)C3Cc5cc(C)c(OC)c(O)c5C(C21)N3C)OCO4	-1
CC1COCCN1c1cc(-c2ccnn2C)c2ccnc(-c3ccn[nH]3)c2n1 (stereo unspecified) + COc1cc2c(cc1O)CCNC21CSC2c3c(OC(C)=O)c(C)c4c(c3C(COC1=O)N1C(O)C3Cc5cc(C)c(OC)c(O)c5C(C21)N3C)OCO4	1

---

# Tested on: SYO-1 tumor spheroids, viability % test/control
# MEASUREMENT_NOTES: Anticancer human tumor SYO-1 cell line growth inhibition;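 also: spheroids exposed to agents for 7 days before viability read; 100% = DMSO vehicle control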
# CONDITION: second compound 10 µM; first compound 0.1 µM; active compounds read low; spheroids with HUVEC and MSC
# viability, T/C values compiled below
ASSAY_METRIC: viability, T/C (%)

> print(dat)
                                   compound  quantitative.readout
1  COc1ccc([C@@H](O)c2cc(-c3ncnc4cc(N5CCOCC5)ccc34)c(F)cc2Cl)nn1 + Cn1nnc2c(C(N)=O)ncn2c1=O                   108
2  CC(C)n1c(=O)n(C)c2cnc3cc(F)c(-c4ccc(OCCCN5CCCCC5)nc4)cc3c21 + Cn1nnc2c(C(N)=O)ncn2c1=O                   100
3  [2H]c1nc(C)nc([2H])c1-c1cc(NC[C@@H](C)c2cccc3c(C(=O)NC)ccnc23)ncn1 + Cn1nnc2c(C(N)=O)ncn2c1=O                   106
4  Cc1cc(C)c(CNC(=O)c2cc(-c3ccc(CN4CCOCC4)cc3)cc3c2cnn3C2CCCC2)c(=O)[nH]1 + Cn1nnc2c(C(N)=O)ncn2c1=O                   106
5  COc1cc(C)[nH]c(=O)c1CN1CCc2c(Cl)cc(C(OC)C3COC3)c(Cl)c2C1=O (stereo unspecified) + Cn1nnc2c(C(N)=O)ncn2c1=O                   107
6  CC1COCCN1c1cc(-c2ccnn2C)c2ccnc(-c3ccn[nH]3)c2n1 (stereo unspecified) + Cn1nnc2c(C(N)=O)ncn2c1=O                  3.73

Numbers sourced from PubChem BioAssay AID1845219.
